System: MAP3K2
Conditions: Compound Concentration (nM):1000;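 also: KINOMEscan scanMAX binding as percent activity remaining versus control; lower means stronger binding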
measuredProperty: Percent Control

>  <molecule>
Cl.c1ccc(Cc2nc3ccc(Nc4ncnc5ccccc45)cc3[nH]2)cc1 [GR269666A]

>  <measValue>
100%

$$$$
>  <molecule>
O=C(Nc1n[nH]c2nc(-c3ccc(O)cc3)c(Br)cc12)C1CC1 [SB-725317]

>  <measValue>
84%

$$$$
>  <molecule>
COc1cc(C)c(N(C)C(=O)CN(C)C)cc1Nc1nc(Nc2cccc(F)c2C(N)=O)c2cc[nH]c2n1 [GSK2219385]

>  <measValue>
93%

$$$$
>  <molecule>
CCS(=O)(=O)c1ccc(OC)c(Nc2ncc(-c3cccc(F)c3)o2)c1 [GW621970X]

>  <measValue>
100%

$$$$
>  <molecule>
Cc1cc(O)cc(C)c1/C=C/c1cncc(C(N)=O)c1 [GW435821X]

>  <measValue>
79%

$$$$
>  <molecule>
Cl.O=C(Nc1ccc(Oc2ccc3[nH]c(NC(=O)c4ccccc4)nc3c2)cc1)Nc1cc(C(F)(F)F)ccc1F [GW709042A]

>  <measValue>
100%

$$$$
>  <molecule>
COc1cccc(-c2c[nH]c3c(N/N=C/c4ccncc4)ncnc23)c1 [GW814408X]

>  <measValue>
65%

$$$$
>  <molecule>
COc1cc(N2CCN(C(C)C)CC2)ccc1Nc1nc(Nc2ccc(F)cc2C(=O)NC[C@@H](O)CO)c2cc[nH]c2n1 [GSK1392956A]

>  <measValue>
100%

$$$$

---

System: PRKR
Construct: gene EIF2AK2
Details: Compound Concentration (nM):1000
// returns N unless Percent Control is strictly below 80%, in which case Y

>  <compound>
COc1cccc(-c2c[nH]c3c(N/N=C/c4ccncc4)ncnc23)c1 [GW814408X]

>  <assignedLabel>
N

$$$$
>  <compound>
Cl.O=S1CCN(Cc2ccc(-c3ccc4ncnc(Nc5ccc(OCc6ccccc6)c(F)c5)c4c3)o2)CC1 [GW576924A]

>  <assignedLabel>
N

$$$$
>  <compound>
COc1ccccc1-c1cc(/C=C2\C(=O)Nc3ncc(Br)cc32)cc(Br)c1O [GW442130X]

>  <assignedLabel>
N

$$$$
>  <compound>
Cl.O=C(Nc1ccc(Oc2ccc3[nH]c(NC(=O)c4ccco4)nc3c2)cc1)Nc1cc(C(F)(F)F)ccc1F [GW683134A]

>  <assignedLabel>
Y

$$$$
>  <compound>
CC(C)COC(=O)c1ccc2c(c1)/C(=C/Nc1ccc(S(N)(=O)=O)cc1)C(=O)N2 [GW416981X]

>  <assignedLabel>
Y

$$$$
>  <compound>
COc1ccc2[nH]c3c4[nH]c5ccc(OC)cc5c4c4c(c3c2c1)C(=O)NC4=O [GW296115X]

>  <assignedLabel>
N

$$$$
>  <compound>
O=C1Nc2ccc(C(=O)c3ccco3)cc2C1=Cc1cc(Cl)c(O)c(Cl)c1 [GW406108X]

>  <assignedLabel>
Y

$$$$
>  <compound>
COc1ccc(COc2ccc(Cc3cnc(N)nc3N)cc2OC)cc1 [GW632580X]

>  <assignedLabel>
N

$$$$
>  <compound>
CN(C)CCNC(=O)Nc1ccc(N(C)c2ccnc(Nc3ccc(CS(C)(=O)=O)cc3)n2)cc1.Cl [GW830900A]

>  <assignedLabel>
N

$$$$
>  <compound>
COc1ccc2c(-c3ccnc(Nc4cccc(OC(F)(F)F)c4)n3)cnn2n1 [GW810372X]

>  <assignedLabel>
Y

$$$$
>  <compound>
CCc1ccc(Oc2nccc(-c3c(-c4ccc(F)cc4)ncn3C3CCNCC3)n2)cc1 [SB-242719]

>  <assignedLabel>
N

$$$$
>  <compound>
CN(C)c1cc2c(Nc3ccc4c(cnn4Cc4ccccc4)c3)ncnc2cn1 [GW282974X]

>  <assignedLabel>
Y

$$$$
>  <compound>
COc1cc(C=NNc2ncnc3c2cnn3-c2ccccc2)ccc1O [GW513184X]

>  <assignedLabel>
Y

$$$$
>  <compound>
NS(=O)(=O)c1ccc(N/N=C2\C(=O)Nc3ccc(C(=O)NCc4ccncc4)cc32)cc1 [GW300657X]

>  <assignedLabel>
Y

$$$$
